experimental_target: human LSD1(171-852) (Homo sapiens, UniProt O60341)
Construct: to give hLSD1(171-852) purified product; made in house; host or cells: Escherichia coli C43(DE3) pLysS
assay_text: Measurement of LSD1 inhibitory activity (time-resolved fluorescence, biotin-histone H3 mono methylated K4 peptide)
Assay type: biochemical
run_parameters: read-out: LSD1 IC50 value
pIC50: −log10 of the molar value. Structures can show the parent of a compound that is named as a salt.
quantity: pIC50

compound: O=C(Nc1ccc([C@@H]2C[C@H]2NCC2CC2)cc1)c1ccc2nc(-c3ccsc3)[nH]c2c1 (relative stereo)
quantity: pIC50
value_reported: > 7.00
--
compound: O=C(Nc1ccc([C@@H]2C[C@H]2NCC2CC2)cc1)c1ccc(-c2nnn[nH]2)cc1 (relative stereo)
quantity: pIC50
value_reported: 6.70

Please look at the following compound next.
Query pIC50 for O=C(Nc1ccc(C(=O)Nc2ccc([C@@H]3C[C@H]3NCC3CC3)cc2)cc1)c1ccccc1 (relative stereo) [Example 80, hydrochloride]
> 7.00

###

experimental_target: MAO-A (Homo sapiens, UniProt P21397)
pIC50: −log10 of the molar value. Where a name gives a salt, the structure may show the parent alone.
quantity: pIC50

Examples from the recorded data:
compound: CS(=O)(=O)Nc1cccc(C(=O)Nc2ccc([C@@H]3C[C@H]3NCC3CC3)cc2)c1 (relative stereo) [Example 136, hydrochloride]
quantity: pIC50
value_reported: < 5.00
--
compound: O=C(Nc1ccc([C@@H]2C[C@H]2NCC2CC2)cc1)c1n[nH]c2ccccc12 (relative stereo)
quantity: pIC50
value_reported: 5.28
--
compound: Cn1cc(C(=O)Nc2ccc([C@@H]3C[C@H]3NCC3CC3)cc2)c(C(F)(F)F)n1 (relative stereo) [Example 158, hydrochloride]
quantity: pIC50
value_reported: < 5.00
--
compound: O=C(Nc1ccc([C@@H]2C[C@H]2NCC2CC2)cc1)c1ccc(-c2ccccc2)cc1 (single isomer, unassigned) [Example 166, hydrochloride]
quantity: pIC50
value_reported: < 5.00
--
compound: O=C(Nc1ccc([C@@H]2C[C@H]2NCC2CC2)cc1)c1ccc(-c2ccccc2Cl)cc1 (relative stereo) [Example 78, hydrochloride]
quantity: pIC50
value_reported: < 5.00
--
compound: O=C(Nc1ccc([C@@H]2C[C@H]2NCC2CC2)cc1)c1ccc(-c2ccccc2)o1 (relative stereo)
quantity: pIC50
value_reported: 5.30
--
compound: Cc1nc(-c2cccc(C(=O)Nc3ccc([C@@H]4C[C@H]4NCC4CC4)cc3)c2)cs1 (relative stereo)
quantity: pIC50
value_reported: < 5.00
--
compound: C=CCOC(=O)N1CCC(N[C@@H]2C[C@H]2c2ccc(NC(=O)c3ccc(-c4ccccc4)cc3)cc2)CC1 (relative stereo)
quantity: pIC50
value_reported: < 5.00

Look up and report pIC50, with MAO-A (Homo sapiens, UniProt P21397) as system, for O=C(N[C@@H](Cc1ccccc1)C(=O)Nc1ccc(C2CC2NCc2ccccc2)cc1)OCc1ccccc1 (stereo in doubt) [Example 57, hydrochloride]
< 5.00

Name the value of pIC50 reported for CN1CCC(N[C@@H]2C[C@H]2c2ccc(N(C)C(=O)c3cccc(C(F)(F)F)c3)cc2)CC1 (relative stereo) [Example 150, dihydrochloride] when tested on MAO-A (Homo sapiens, UniProt P21397).
< 5.00

Fill in pIC50 for O=C(Nc1ccc([C@@H]2C[C@H]2NCC2CC2)cc1)c1cccc(-n2cnnn2)c1 (relative stereo) tested with MAO-A (Homo sapiens, UniProt P21397).
< 5.00

###

experimental_target: human LSD1(171-852) (Homo sapiens)
Construct: to give hLSD1(171-852) purified product; made in house; host or cells: Escherichia coli C43(DE3) pLysS
assay_text: Measurement of LSD1 inhibitory activity (time-resolved fluorescence, biotin-histone H3 mono methylated K4 peptide)
Format: biochemical
run_parameters: read-out: LSD1 IC50 value
Counter-ions that a name gives are not always drawn.
quantity: pIC50
Entry type: numeric. Quantity: pIC50, the -log10 of concentration in molar units.

molecule: O=C(Nc1ccc([C@@H]2C[C@H]2NCc2ccccc2)cc1)c1cccc(OCc2ccccc2)c1 (relative stereo) [Example 11, hydrochloride]
value_reported: 6.82

Read the next record carefully.
Check the records and state pIC50 for CN(C(=O)c1ccc(-c2ccccc2)cc1)c1ccc([C@@H]2C[C@H]2NCC2CC2)cc1 (relative stereo) [Example 64, hydrochloride]
6.70

###

Sequence of the target: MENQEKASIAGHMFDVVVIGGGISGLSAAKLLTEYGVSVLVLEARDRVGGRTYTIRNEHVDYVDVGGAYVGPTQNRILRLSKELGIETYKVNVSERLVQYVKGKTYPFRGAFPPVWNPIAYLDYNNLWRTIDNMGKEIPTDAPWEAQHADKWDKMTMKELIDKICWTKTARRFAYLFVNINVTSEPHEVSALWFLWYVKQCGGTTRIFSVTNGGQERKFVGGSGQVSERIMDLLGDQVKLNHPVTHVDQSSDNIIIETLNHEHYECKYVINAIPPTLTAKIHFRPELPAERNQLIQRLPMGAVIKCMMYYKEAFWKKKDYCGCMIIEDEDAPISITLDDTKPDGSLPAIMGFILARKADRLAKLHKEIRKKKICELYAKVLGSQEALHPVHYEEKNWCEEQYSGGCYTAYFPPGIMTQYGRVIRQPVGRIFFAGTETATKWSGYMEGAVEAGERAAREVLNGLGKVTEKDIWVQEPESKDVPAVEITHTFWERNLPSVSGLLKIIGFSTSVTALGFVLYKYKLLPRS
Structures can show the parent of a compound that is named as a salt.
# reported pIC50; entries follow
// pIC50: -log10(molar conc.)

Worked cases, answers included:
molecule: O=C(Nc1ccc([C@@H]2C[C@H]2NCC2CC2)cc1)c1ccc(-c2cccnc2)cc1 (relative stereo) [Example 132]
pIC50: 5.08
--
molecule: O=C(Nc1ccc([C@@H]2C[C@H]2NCc2ccc3cccnc3n2)cc1)c1cccc(C(F)(F)F)c1 (relative stereo) [Example 162, hydrochloride]
pIC50: 5.68
--
molecule: O=C(Nc1ccc([C@@H]2C[C@H]2NCc2ccc3nccn3c2)cc1)c1cccc(C(F)(F)F)c1 (relative stereo) [Example 107, dihydrochloride]
pIC50: 5.37

Provide only the value of recorded pIC50 for O=C(Nc1ccc([C@@H]2C[C@H]2NCc2cccnc2)cc1)c1ccc(-c2ccccc2)cc1 (relative stereo) [Example 38]
5.04

Supply recorded pIC50 for O=C(Nc1ccc([C@@H]2C[C@H]2NC2CCNC(c3ccccc3)C2)cc1)c1cccc(C(F)(F)F)c1 (relative stereo) [Example 77, dihydrochloride] here.
5.00

Respond only with pIC50 recorded for O=C(Nc1ccc([C@@H]2C[C@H]2NCc2cscn2)cc1)c1cccc(C(F)(F)F)c1 (relative stereo) [Example 72, dihydrochloride]
5.51

###

Reported pIC50 values are given for each entry in this list.
experimental_target: human LSD1(171-852) (Homo sapiens, UniProt O60341)
Construct: to give hLSD1(171-852) purified product; made in house; host or cells: Escherichia coli C43(DE3) pLysS
assay_text: Measurement of LSD1 inhibitory activity (time-resolved fluorescence, biotin-histone H3 mono methylated K4 peptide)
Assay type: biochemical
run_parameters: read-out: LSD1 IC50 value
pIC50: −log10 of the molar value. Where a name gives a salt, the structure may show the parent alone.

Solved cases (5 shown):
compound: O=C(Nc1ccc([C@@H]2C[C@H]2NCC2CC2)cc1)c1n[nH]c2ccccc12 (relative stereo) [Example 128]
experimental_target: human LSD1(171-852) (Homo sapiens, UniProt O60341)
pIC50: > 7.00

compound: O=C(Nc1ccc([C@@H]2C[C@H]2NCC2CC2)cc1)c1ccc(C(F)(F)F)cc1 (relative stereo) [Example 69, hydrochloride]
experimental_target: human LSD1(171-852) (Homo sapiens, UniProt O60341)
pIC50: > 7.00

compound: O=C(Nc1ccc([C@@H]2C[C@H]2NC2CCN(Cc3ccccc3)CC2)cc1)c1ccc(-c2ccccc2)cc1 (relative stereo) [Example 51]
experimental_target: human LSD1(171-852) (Homo sapiens, UniProt O60341)
pIC50: 7.00

compound: Cc1cccc(C(=O)Nc2ccc([C@@H]3C[C@H]3NCc3ccccc3)cc2)c1 (relative stereo) [Example 7]
experimental_target: human LSD1(171-852) (Homo sapiens, UniProt O60341)
pIC50: > 7.00

compound: O=C(Nc1ccc([C@@H]2C[C@H]2NC2CCN(CC(F)(F)F)CC2)cc1)c1ccc(-c2ccccc2)cc1 (relative stereo) [Example 63, hydrochloride]
experimental_target: human LSD1(171-852) (Homo sapiens, UniProt O60341)
pIC50: > 7.00

Here is another compound to look at.
Input O=C(Nc1ccc([C@@H]2C[C@H]2NCC2CC2)cc1)c1nc(-c2ccccc2)cs1 (relative stereo) [Example 125] , output reported pIC50.
> 7.00
